System under test: SARS-CoV-2 Spike (S) protein on vesicular stomatitis virus (VSV) pseudoviruses (SARS-CoV-2, UniProt P0DTC2 14-1273)
Assay overview: cell-based or functional assay
Quick reference: IC50, pseudovirus entry assay (luciferase, HEK 293T-ACE2 cells) of the listed items.
Measurement label: IC50, pseudovirus entry assay (luciferase, HEK 293T-ACE2 cells)

* NI-607.529_G4 (antibody, V domains shown) VH: QVQLQQWGAGLLKPSETLSLTCAVYGGSFSGYYWSWIRQPPGKGLEWIGEINHSGSTNYNPSLKSRVTISVDTSKNQFSLKLSSVTAADTAVYYCARASLYYSDSSGYSHPYYFDYWGQGTLVTVSS VL: QPVLTQPPSVSGAPGQRVTISCTGSSSNIGAGYDVHWYQQLPGTAPKLLIYGNSNRPSGVPDRFSGSKSGMSASLAITGLQAEDEADYYCQSYDSSLSGWVFGGGTKLTVL | > 100 µg/mL
* NI-607.274_B7 (antibody, V domains shown) VH: QVQLVESGGGRVQPGRSLRLSCAASGFTFSTHGMHWVRQVPGKGLDWITGITYDGSDQFYADSVKGRFTISRDNSKNMLYLQMNSLRAEDTAVYFCAKDLEWLTNYLDHWGQGTLVTVSS VL: DVVMTQSPGTLSVSPGERATLSCRASQNINYNLAWYQQKPGQAPRLLIFDASTRATGIPARFTGSGSGTEFTLTISSLQSEDFAVYYCQQSNAWLTFGGGTKVEIK | > 100 µg/mL
* NI-607.531_D8 (antibody, V domains shown) VH: EVQLVESGGGLVQPGRSLRLSCAASGFIFDDYAMHWVRQAPGKGLEWVSGISWNSDSIGYADSVKGRFTISRDNAKNSLYLQMNSLRAEDTALYYCAKGSRSDWSNPSDYWGQGTLVTVSS VL: SYELTQPPSVSVAPGKTARITCGGNNIGSKSVHWYQQKPGQAPVLVVYDDSDRPSGIPERFSGSNSGNTATLTISRVEAGDEADYYCQVWDSSSDPVVFGGGTKLTVL | > 100 µg/mL
